# system tested: Signal transducer and activator of transcription 3 (Homo sapiens)
# assay info: Inhibition of STAT3 in human SB-590885-sensitive 451Lu cells assessed as reduction in PAX3 expression measured after 12 hrs by Western blot analysis
# stated conditions: dose 10-25 µM
The source made the active and inactive calls. The rule behind the calls is not given here.
Response enum: Y (active), N (inactive)

Would you please look over these solved cases?
> print(dat)
                           structure.string                             system.tested  answer.label
1  COc1ccc2nc(-c3ccc(Cl)cc3)cc(-c3nnc(SCC(=O)Nc4ccc(/C(C)=N\O)cc4)n3-c3ccccc3)c2c1  Signal transducer and activator of transcription 3 (Homo sapiens)             N
2  C=CCn1c(SCC(=O)Nc2ccc(/C(C)=N\O)cc2)nnc1-c1cc(-c2ccccc2)nc2ccccc12  Signal transducer and activator of transcription 3 (Homo sapiens)             Y
3  C=CCn1c(SCC(=O)Nc2ccc(/C(C)=N\O)cc2)nnc1-c1cc(-c2ccc(Cl)cc2)nc2ccccc12  Signal transducer and activator of transcription 3 (Homo sapiens)             Y
4  COc1ccc(-c2cc(-c3nnc(SCC(=O)Nc4ccc(/C(C)=N\O)cc4)n3-c3ccccc3)c3cc(OC)ccc3n2)cc1  Signal transducer and activator of transcription 3 (Homo sapiens)             N

Below: the item to evaluate.
Call for entry COc1ccc2nc(-c3ccc(OC)c(OC)c3)cc(-c3nnc(SCC(=O)Nc4ccc(/C(C)=N\O)cc4)n3-c3ccccc3)c2c1 :
N

----------
# system tested: Signal transducer and activator of transcription 3 (Homo sapiens, UniProt P40763)
# Sequence (P40763 whole entry): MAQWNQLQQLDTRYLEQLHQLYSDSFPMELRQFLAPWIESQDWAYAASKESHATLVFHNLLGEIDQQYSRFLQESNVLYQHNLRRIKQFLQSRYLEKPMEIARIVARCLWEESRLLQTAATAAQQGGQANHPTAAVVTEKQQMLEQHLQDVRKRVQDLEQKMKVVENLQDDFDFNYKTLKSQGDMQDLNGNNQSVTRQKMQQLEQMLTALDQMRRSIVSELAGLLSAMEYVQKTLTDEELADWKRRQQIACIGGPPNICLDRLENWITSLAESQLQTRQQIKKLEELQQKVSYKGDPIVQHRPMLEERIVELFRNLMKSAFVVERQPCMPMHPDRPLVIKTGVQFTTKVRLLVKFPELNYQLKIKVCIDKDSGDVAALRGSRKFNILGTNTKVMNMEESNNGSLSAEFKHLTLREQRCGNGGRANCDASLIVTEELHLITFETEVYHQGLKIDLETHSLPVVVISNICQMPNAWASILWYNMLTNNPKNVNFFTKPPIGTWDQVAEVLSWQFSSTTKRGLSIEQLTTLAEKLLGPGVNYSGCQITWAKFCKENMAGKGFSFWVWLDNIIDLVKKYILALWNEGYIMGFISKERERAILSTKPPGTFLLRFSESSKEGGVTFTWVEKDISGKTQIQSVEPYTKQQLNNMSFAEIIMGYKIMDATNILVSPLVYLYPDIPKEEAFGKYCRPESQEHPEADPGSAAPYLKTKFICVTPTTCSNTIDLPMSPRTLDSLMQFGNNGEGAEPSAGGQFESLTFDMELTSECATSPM
# assay info: Inhibition of STAT3 in human SB-590885-resistant 451Lu cells assessed as reduction in STAT3 transcriptional activity measured after 12 hrs by Dual-luciferase reporter gene assay
Reported pIC50 values are given for each entry in this list.
// pIC50: -log10(molar conc.)

Recorded pIC50, per entry:
> print(dat)
                           structure.string  test.value
1  C=CCn1c(SCC(=O)Nc2ccc(/C(C)=N\O)cc2)nnc1-c1cc(-c2ccccc2)nc2ccccc12        5.33
2  C=CCn1c(SCC(=O)Nc2ccc(/C(C)=N\O)cc2)nnc1-c1cc(-c2ccc(Cl)cc2)nc2ccccc12        4.77

Next up:
Answer with reported pIC50 of COc1ccc2nc(-c3ccc(Cl)cc3)cc(-c3nnc(SCC(=O)Nc4ccc(/C(C)=N\O)cc4)n3-c3ccccc3)c2c1
4.39

----------
# System: A-375
# assay info: Potentiation of compound II-induced cytotoxicity against human A375 cells assessed as compound II IC50 at 12.5 uM measured after 48 hrs by MTS assay (reference value: 16.2 +/- 1.6 uM)
# Assay type: functional, cell-based
# stated conditions: A-375, 48 h
readout label: pIC50
// pIC50: -log10(molar conc.)

Answer with reported pIC50 of COc1ccc2nc(-c3ccc(Cl)cc3)cc(-c3nnc(SCC(=O)Nc4ccc(/C(C)=N\O)cc4)n3-c3ccccc3)c2c1
5.17

----------
Reported pIC50 values are given for each entry in this list.
# system tested: Signal transducer and activator of transcription 3 (Homo sapiens)
# assay info: Inhibition of STAT3 in human SB-590885-sensitive MEL1617 cells assessed as reduction in STAT3 transcriptional activity measured after 12 hrs by Dual-luciferase reporter gene assay
# Format: cell-based
// pIC50: -log10(molar conc.)

> print(dat)
                           structure.string  readout.label  test.value
1  COc1ccc2nc(-c3ccc(Cl)cc3)cc(-c3nnc(SCC(=O)Nc4ccc(/C(C)=N\O)cc4)n3-c3ccccc3)c2c1          pIC50        4.12
2  C=CCn1c(SCC(=O)Nc2ccc(/C(C)=N\O)cc2)nnc1-c1cc(-c2ccc(Cl)cc2)nc2ccccc12          pIC50        4.67

Next up:
Answer with reported pIC50 of C=CCn1c(SCC(=O)Nc2ccc(/C(C)=N\O)cc2)nnc1-c1cc(-c2ccccc2)nc2ccccc12
4.99
